tested on: KM12 colon; assay: NCI tumour cell line growth inhibition, 48 h
In this section we review reported TGI values for a set of compounds.

As a guide, the following entries are already answered.
compound=NC(=O)c1cc(N2CC2)c([N+](=O)[O-])cc1[N+](=O)[O-] result_type=TGI result="> 200 µM"
compound=CCOP(=O)(CC(=O)C1CC1)OCC result_type=TGI result="> 100 µM"
compound=COc1cnc2c(c1)C(=O)c1c-2n(CCCN2CCCC2)c(=O)c2cc([N+](=O)[O-])ccc12 result_type=TGI result="1.77 µM"

# lookup: TGI of Cc1ccc2c(c1)nc1n2C(c2c(F)cccc2F)SC1 (stereo not drawn)
> 100 µM

Give its TGI value. Item: CCOC(=O)c1ccc(-n2cnc(-c3ccc([N+](=O)[O-])cc3)c2)cc1
> 100 µM

If you can, please state the reported TGI value of O=C1c2ccccc2C(=O)N1CCc1ncc(-c2ccccc2)[nH]1 .
> 100 µM

What does the record list as TGI for CC1SC(c2ccccc2Cl)N(NC(=O)C(O)c2ccccc2)C1=O (stereo not drawn) ?
> 100 µM

Data request, read-out TGI, for CC1=CCC2CC1C(C(=O)c1c[nH]c3ccccc13)=NC2(C)C (stereo not drawn)
> 100 µM

Sample O=C(OC1=CCN(Br)C1=O)C1=C(O)C(=O)N(Br)C1 — what was its TGI?
> 100 µM

I have this compound here, CSc1cc([C@@H]2C[C@H]2c2ccc(Cl)cc2)on1 , and I need its recorded TGI.
30.3 µM

# TGI lookup, item CCOC(=O)c1c(N)sc2c1CC(C)CC2 (stereo not drawn)
> 100 µM

Given the entry COC(=O)C(CNC(=O)/C=C/c1ccc(OC)c(OC)c1)NC(=O)/C=C/c1ccc(OC)c(OC)c1 (stereo not drawn) , report its measured TGI.
> 100 µM

What value of TGI has been recorded for this entry: CCCCSC1=N/C(=C\c2ccccc2O)C(=O)N1
> 100 µM
